As shown below, each of these compounds has a reported IC50 value.
- tested-system: α4β7 (Homo sapiens, UniProt P13612+P26010)
- Construct: α4β7 expressing cells (RPMI-8866); endogenous in cells; host or cells: RPMI 8866
- method-notes: Cell adhesion assay, RPMI8866 cells adhering to MAdCAM coated plates
- Assay type: cell-based
- measurement-parameters: RPMI8866 cells on recombinant human MAdCAM coated plates; read-out: CA Assay (Example 7) IC50
- Excerpt: Three in vitro assays were used to examine the α4β7 mechanistic process used by cells: 1) ligand:receptor affinity, 2) the avidity of those interactions on a cell's surface, and 3) how those interactions fare under an imposing force. In Example 5, a Fluorescence Polarization (FP) assay is used to measure compound activity through binding competition with the fluorescein-labeled peptide. […] Unattached cells are removed and the remaining adherent cells are quantified. […]

> print(dat)
                                   compound                             tested.system  test.value
1  Cc1cc(C)c(-c2cc(C(F)(F)F)c(F)c([C@H](CC(=O)O)NC(=O)[C@H](CC(C)C)n3cc(CCN(C)C)c(C(F)(F)F)cc3=O)c2F)c(C)c1 [IF-P2]  α4β7 (Homo sapiens, UniProt P13612+P26010)      < 5 nM

Consider Cc1cc(C2CC2)cc(C)c1-c1cc(C(F)(F)F)c(F)c([C@H](CC(=O)O)NC(=O)[C@H](CC(C)C)n2cc(CCCN(C)C)c(C(F)(F)F)cc2=O)c1F [HU-P2] . Its measured IC50 is 5 to 10 nM

Consider Cc1cc(C)c(-c2cc(C(F)(F)F)c(F)c([C@H](CC(=O)O)NC(=O)[C@H](CC(C)C)n3cc(CCCN(C)C)c(C(F)(F)F)cc3=O)c2F)c(C)c1 [HZ-P2] . Its measured IC50 is 5 to 10 nM

====

- tested-system: α4β7 (Homo sapiens, UniProt P13612+P26010)
- Construct: α4β7 expressing cells (RPMI-8866); endogenous in cells; host or cells: RPMI 8866
- method-notes: Cell adhesion assay, RPMI8866 cells adhering to MAdCAM coated plates
- Format: cell-based
- measurement-parameters: RPMI8866 cells on recombinant human MAdCAM coated plates; read-out: CA Assay (Example 7) IC50
As shown below, each of these molecules has a reported IC50 value.

Study these solved cases before continuing.
molecule	IC50
Cc1cc(F)cc(C)c1-c1cc(C(F)(F)F)c(F)c([C@H](CC(=O)O)NC(=O)[C@H](CC(C)C)n2cc(CCCN(C)C)c(C(F)(F)F)cc2=O)c1F [HW-P2]	< 5 nM
Cc1cc(-c2c(C)cccc2C)cc([C@H](CC(=O)O)NC(=O)[C@H](CC(C)C)n2cc(CCN3CC[C@@H](F)C3)cc(F)c2=O)c1F (single isomer, unassigned) [AU-P2]	< 5 nM
Cc1cc(C)c(-c2cc(C(F)(F)F)c(F)c([C@H](CC(=O)O)NC(=O)[C@H](CC(C)C)n3cc(CCN4CCC4)c(C(F)(F)F)cc3=O)c2F)c(C)c1 [IG-P2]	< 5 nM
Cc1ccn([C@@H](NC(C)C)C(=O)N[C@@H](CC(=O)O)c2cncc(-c3c(C)cccc3C)c2)c(=O)c1 [Example C-7, reference compound]	10 to 50 nM
Cc1ccc(F)c(C)c1-c1cc(C2CC2)c(F)c([C@H](CC(=O)O)NC(=O)[C@H](CC(C)C)n2cc(CCN3CCC3)c(C(F)(F)F)cc2=O)c1F [HH-P2]	5 to 10 nM

--- query ---
Consider Cc1cc(-c2c(C)cc(F)cc2C)cc([C@H](CC(=O)O)NC(=O)[C@H](CC(C)C)n2cc(CCN(C)C)cc(C(F)F)c2=O)c1F [I-P2] . Its measured IC50 is < 5 nM

====

- tested-system: α4β7 (Homo sapiens, UniProt P13612+P26010)
- Construct: α4β7 expressing cells (RPMI-8866); endogenous in cells; host or cells: RPMI 8866
- Sequence (P13612 34-1032): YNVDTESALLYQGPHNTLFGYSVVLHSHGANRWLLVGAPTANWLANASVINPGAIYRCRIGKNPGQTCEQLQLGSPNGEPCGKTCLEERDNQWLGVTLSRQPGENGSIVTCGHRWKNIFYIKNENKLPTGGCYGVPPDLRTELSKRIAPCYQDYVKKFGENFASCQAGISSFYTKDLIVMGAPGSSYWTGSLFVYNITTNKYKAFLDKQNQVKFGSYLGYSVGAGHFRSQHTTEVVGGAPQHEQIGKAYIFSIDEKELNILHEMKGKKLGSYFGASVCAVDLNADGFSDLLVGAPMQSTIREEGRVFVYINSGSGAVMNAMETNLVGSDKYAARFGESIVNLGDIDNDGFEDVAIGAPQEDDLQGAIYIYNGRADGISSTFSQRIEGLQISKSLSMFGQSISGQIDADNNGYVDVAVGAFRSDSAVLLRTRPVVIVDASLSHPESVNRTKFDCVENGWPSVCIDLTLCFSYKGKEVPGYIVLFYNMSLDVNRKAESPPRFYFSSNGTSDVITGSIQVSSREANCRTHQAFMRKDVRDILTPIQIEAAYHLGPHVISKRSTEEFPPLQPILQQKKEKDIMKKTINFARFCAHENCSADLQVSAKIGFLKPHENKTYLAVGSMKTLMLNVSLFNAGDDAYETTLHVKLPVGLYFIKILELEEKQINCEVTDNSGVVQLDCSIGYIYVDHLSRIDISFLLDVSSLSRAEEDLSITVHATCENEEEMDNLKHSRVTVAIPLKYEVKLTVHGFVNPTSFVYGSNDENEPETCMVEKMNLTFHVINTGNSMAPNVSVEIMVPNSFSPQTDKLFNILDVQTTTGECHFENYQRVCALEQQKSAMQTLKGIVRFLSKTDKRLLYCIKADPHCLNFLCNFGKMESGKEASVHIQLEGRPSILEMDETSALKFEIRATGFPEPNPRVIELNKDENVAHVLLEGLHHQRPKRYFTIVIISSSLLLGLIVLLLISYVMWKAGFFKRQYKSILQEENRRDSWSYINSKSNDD
- Sequence (P26010 20-798): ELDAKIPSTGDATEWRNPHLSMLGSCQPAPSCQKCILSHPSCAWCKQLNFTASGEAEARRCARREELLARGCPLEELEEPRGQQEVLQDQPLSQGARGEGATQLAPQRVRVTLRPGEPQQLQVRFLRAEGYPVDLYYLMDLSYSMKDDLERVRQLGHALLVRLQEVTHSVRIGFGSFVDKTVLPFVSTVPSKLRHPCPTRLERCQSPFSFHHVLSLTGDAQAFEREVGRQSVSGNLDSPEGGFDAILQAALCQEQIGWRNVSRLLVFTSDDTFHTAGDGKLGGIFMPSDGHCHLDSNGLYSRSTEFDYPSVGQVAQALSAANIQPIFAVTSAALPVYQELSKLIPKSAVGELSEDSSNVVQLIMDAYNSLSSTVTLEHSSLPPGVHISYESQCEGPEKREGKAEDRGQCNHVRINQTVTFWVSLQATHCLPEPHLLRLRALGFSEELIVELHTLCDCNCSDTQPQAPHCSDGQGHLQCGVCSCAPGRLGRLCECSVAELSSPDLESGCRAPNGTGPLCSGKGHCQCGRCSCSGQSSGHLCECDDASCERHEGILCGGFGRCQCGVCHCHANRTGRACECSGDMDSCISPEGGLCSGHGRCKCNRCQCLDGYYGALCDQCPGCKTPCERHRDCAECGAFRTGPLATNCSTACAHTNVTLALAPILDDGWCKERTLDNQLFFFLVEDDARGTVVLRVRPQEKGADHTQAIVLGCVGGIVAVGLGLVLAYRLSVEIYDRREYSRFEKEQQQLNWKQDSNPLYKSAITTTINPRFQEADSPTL
- method-notes: Cell-based ligand binding assay (LBA), RPMI 8866 cells in competition with soluble MAdCAM-1-Fc
- measurement-parameters: MAdCAM-1-Fc Dylight 650, flow cytometry, read-out: LB Assay (Example 6) IC50
pIC50: −log10 of the molar value.
result-type: pIC50

molecule	tested-system	test-value
Cc1ccc(F)c(C)c1-c1cc(C2CC2)c(F)c([C@H](CC(=O)O)NC(=O)[C@H](CC(C)C)n2cc(CCN3CCC3)c(C(F)(F)F)cc2=O)c1F [HH-P2]	α4β7 (Homo sapiens, UniProt P13612+P26010)	≥ 8.00

Consider Cc1ccn([C@@H](CC(C)C)C(=O)N[C@H](CC(=O)O)c2cncc(-c3c(C)cccc3C)c2)c(=O)c1 [Example C-28, reference compound] . Its measured pIC50 is 6.30 to 8.00

Consider Cc1cc(-c2c(C)ccc(F)c2C)cc([C@H](CC(=O)O)NC(=O)C(CC(C)C)n2cc(CCN3CCC3)c(C(F)(F)F)cc2=O)c1F (single isomer, unassigned) [AF-P2] . Its measured pIC50 is ≥ 8.00
